Hello, the source for this data is the supplement of paper PMC3545927, in case you need it.

# TARGET_SYSTEM: furin, P09958;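 note: purified furin at 1:10 enzyme:substrate in 50 mM HEPES pH 7.5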
# Sequence (P09958 whole entry): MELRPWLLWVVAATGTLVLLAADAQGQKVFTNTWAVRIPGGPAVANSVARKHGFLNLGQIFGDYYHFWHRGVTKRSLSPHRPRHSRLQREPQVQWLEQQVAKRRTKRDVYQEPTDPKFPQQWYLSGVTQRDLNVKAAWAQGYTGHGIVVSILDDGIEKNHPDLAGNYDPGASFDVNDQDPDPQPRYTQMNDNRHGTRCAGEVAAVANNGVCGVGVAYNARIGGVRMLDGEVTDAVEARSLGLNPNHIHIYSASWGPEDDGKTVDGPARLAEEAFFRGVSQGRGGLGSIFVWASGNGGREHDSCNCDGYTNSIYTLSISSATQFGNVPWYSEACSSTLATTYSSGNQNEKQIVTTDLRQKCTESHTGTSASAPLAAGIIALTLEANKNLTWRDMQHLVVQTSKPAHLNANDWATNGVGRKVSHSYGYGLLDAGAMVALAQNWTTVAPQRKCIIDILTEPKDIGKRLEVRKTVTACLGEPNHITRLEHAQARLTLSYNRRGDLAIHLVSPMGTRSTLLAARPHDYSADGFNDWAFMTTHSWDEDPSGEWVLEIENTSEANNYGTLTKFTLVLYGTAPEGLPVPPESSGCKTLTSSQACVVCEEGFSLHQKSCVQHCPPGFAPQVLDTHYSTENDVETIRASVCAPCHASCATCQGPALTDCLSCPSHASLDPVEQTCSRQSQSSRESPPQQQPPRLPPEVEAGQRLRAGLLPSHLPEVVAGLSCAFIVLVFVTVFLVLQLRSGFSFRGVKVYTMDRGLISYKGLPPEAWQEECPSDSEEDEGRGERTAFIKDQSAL
# PROTOCOL_TEXT: furin cleavage Z-score vs untreated control; higher = more cleavage, active = 3.5 or more, inactive = 1 or less, 8 variable residues between constant flanks
# TEST_CONDITIONS: 15 min
Some of the results follow. No count for the full screen is at hand.
OBSERVED_PROPERTY: furin cleavage Z-score

Query string: For the sequence CARRRKDDYAAGNASASA [FS-2073] , what furin cleavage Z-score is on record?
Result string: 0.661 (inactive)

Query string: For the sequence CARRRRRPGGAGNASASA [FS-3065] , what furin cleavage Z-score is on record?
Result string: -1.18 (inactive)

Query string: For the sequence CAMEEISQHLAGNASASA [HC5] , what furin cleavage Z-score is on record?
Result string: 0.702 (inactive)

Query string: For the sequence CARRRRDLQAAGNASASA [FS-2075] , what furin cleavage Z-score is on record?
Result string: 10.5 (active)

Query string: For the sequence CARHRRILQAAGNASASA [FS-2025] , what furin cleavage Z-score is on record?
Result string: 0.0867 (inactive)

Query string: For the sequence CARRRGDSRGAGNASASA [HC732] , what furin cleavage Z-score is on record?
Result string: -0.656 (inactive)

Query string: For the sequence CARNFRFLSSAGNASASA [FS-3004] , what furin cleavage Z-score is on record?
Result string: -0.288 (inactive)
